System: 782815-120-R-J1-PDC complex spheroid viability;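 also: spheroids exposed to compounds for 7 days before reading; 100% = DMSO vehicle control viability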
Assay: Anticancer human tumor 782815-120-R-J1-PDC patient-derived colon adenocarcinoma cell line growth inhibition [RAS]
Settings: second compound 0.3 µM; first compound 0.316 µM; active compounds read low
property.name: viability, T/C

Q. Requested read-out: viability, T/C. Entry: C[C@@H](NC(=O)c1ncnc(N)c1Cl)c1ncc(C(=O)Nc2cc(C(F)(F)F)c(Cl)cn2)s1 + CCn1c(-c2cccnc2C(C)OC)c2c3cc(ccc31)N1CCOC(CC(NC(=O)C(C(C)C)N(C)C(=O)C3(F)CCN(C(=O)C#CC(C)(C)N(C)C)CC3)C(=O)N3CCCC(N3)C(=O)OCC(C)(C)C2)C1
A. 96.4%

New cases:
Q. Requested read-out: viability, T/C. Entry: Cc1nc(N2CCC3(CC2)COC(C)C3N)c(CO)nc1Sc1ccnc(N)c1Cl (centres undefined) + CCn1c(-c2cccnc2C(C)OC)c2c3cc(ccc31)N1CCOC(CC(NC(=O)C(C(C)C)N(C)C(=O)C3(F)CCN(C(=O)C#CC(C)(C)N(C)C)CC3)C(=O)N3CCCC(N3)C(=O)OCC(C)(C)C2)C1
A. 87.5%

Q. Requested read-out: viability, T/C. Entry: C=CC(=O)Nc1cc(Nc2nccc(-c3cn(C)c4ccccc34)n2)c(OC)cc1N(C)CCN(C)C + CCn1c(-c2cccnc2C(C)OC)c2c3cc(ccc31)N1CCOC(CC(NC(=O)C(C(C)C)N(C)C(=O)C3(F)CCN(C(=O)C#CC(C)(C)N(C)C)CC3)C(=O)N3CCCC(N3)C(=O)OCC(C)(C)C2)C1
A. 97%

Q. Requested read-out: viability, T/C. Entry: CCC(CC)c1cc(NC2CCC(N)C2)n2nccc2n1 (centres undefined) + CCn1c(-c2cccnc2C(C)OC)c2c3cc(ccc31)N1CCOC(CC(NC(=O)C(C(C)C)N(C)C(=O)C3(F)CCN(C(=O)C#CC(C)(C)N(C)C)CC3)C(=O)N3CCCC(N3)C(=O)OCC(C)(C)C2)C1
A. 94.3%
